Provenance of the data: the supplement of paper PMC10567573

# protein stability index per entry
Assay: protein stability index of a GFP-peptide fusion (GPS, HEK-293T) (PSI 1-6); higher = more stable;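 also: 24-mer peptide tiles fused after GFP, lentivirally expressed, FACS-sorted into six equal bins by GFP/DsRed ratio, decoded by Illumina sequencing, PSI is the read-weighted mean bin number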
Conditions: treatment: MLN4924 1 uM, 8 h; c terminus: a fixed tail appended
Parameter measured: protein stability index

# Sequence record, Experimental value
records = [
    ("KKLRLNGGRNPYEGRVEVLVERNG [LOXL2]", 4.01),
    ("TLEITLKDIVQTVRSRLEEAGIKV [TENT5C]", 2.18),
    ("ELHPESGEEAVTLVEDMQRELGRL [ZNF263]", 5.13),
    ("PIGILTTSYCELLQNKVPLLGSST [PPTC7]", 2.66),
    ("CRLKKCFRAGMKKEAVQNERDRIS [HNF4A]", 3.44),
    ("LLRPKYRAPQGCSGVDECARQEGL [PBXIP1]", 3.65),
    ("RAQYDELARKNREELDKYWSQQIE [KRT18]", 3.97),
    ("KVRSYVKRALAEGAQIWCGEGVDK [ALDH8A1]", 2.78),
    ("EDQYIFIHDALLEAVTCGNTEVPA [PTPRD]", 3.01),
    ("MLQKPKSVKLRALRSPRKFGVAGR [DFFB]", 3.26),
    ("SRSVEDDKEGHLVCRIGDWLQERY [CLK3]", 3.45),
    ("PLELMRTKLQAQHVSYRELGACVR [SLC25A39]", 2.92),
    ("AVMFFIVFFAYAQLGYLLFGTQVE [PKD2L1]", 2.73),
    ("LQTDHYAALLGSNSESWGWDIGRG [SPSB2]", 3.02),
    ("HEPPFHLDREIRLQRLSHSGSRVR [SCNN1D]", 4.31),
    ("NQVSSNSWGIAGETELALVKESGE [DLC1]", 5.23),
    ("PEGGMEQALAGASSGRELGRPKEL [ZNF263]", 5.29),
    ("LSASKDRTMRLWNIEEIDEIPLVI [WDR88]", 2.39),
    ("VEKNEHCIENNIDLQVNRNFSLAT [R3HDM1]", 3.93),
    ("RTDVGITHQHWQQFEPQLTLWDVF [RSAD1]", 2.38),
    ("LAALCLAGPPAPARACQLPSEWRP [CCDC3]", 2.92),
    ("YLTIILILISFTCRFLLNSRVTDA [TMEM120A]", 3.12),
    ("KMTPVKNYQAHQSRVTMILFVLEL [WDFY2]", 2.88),
    ("VFIIRKSLLDELMEVQHFRTIYHM [SOAT2]", 2.58),
    ("SDFEWLKNELERDSKIVVPPLPGK [SNX12]", 4.13),
    ("GCTGDEAESRGHSKGWGRNYASII [MYCL]", 3.2),
    ("MAAAVAAAPGALGSLHAGGARLVA [AUH]", 3.12),
    ("GLSPSIDTLDHIRALDRLQEVPHE [PPP2CA]", 4.87),
    ("SNLCCFIPGKVIDEIYRVLRYVNS [FBXO28]", 2.38),
    ("LEASVQDDAGTSGGPSSPPSDPPA [C2CD2L]", 5.66),
    ("AVGQDCYTRIWSLHDARLLRTIPS [DCAF4]", 2.39),
    ("ERDIEIGFLPWLMNEVEKTMEYSM [RSPH3]", 2.42),
    ("AVQGLNLRSPNNFLSYYRLTRFLS [CCND1]", 2.36),
    ("LAAALAQHSVPLQLELRAGAERLD [TRADD]", 2.94),
    ("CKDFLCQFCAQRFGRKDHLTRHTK [PLAGL1]", 3.09),
    ("NLAAAAADIPQDQLVVMHPTPQVD [BTBD10]", 5.13),
    ("YESDSSNHCMLSPSSSGHLADSDT [C18orf25]", 5.28),
    ("RLGELFNPYYDPLQWKSSHFERRD [CHGB]", 2.64),
    ("EALAVLEPYARLPPHKHVARPTEV [TRIB3]", 2.77),
    ("STVKDCATIFALSTMTSSVQIYNL [ATL3]", 3.25),
    ("ELAGVDTELLAERFYYQALSVAPQ [SMG5]", 2.88),
    ("ERLVVLDYIIRNTDRGNDNWLIKY [PI4K2A]", 2.49),
    ("FVKYLIRPQPWLEKEIEEATKKLG [FUT8]", 2.47),
    ("YTPTAEDSAQMQNGGPSTPPASPP [ANKRD40]", 5.16),
    ("DDDDHDDHEDNDKMNDSEGMDPER [NOL4L]", 5.54),
    ("SSEHFEKLHEIFRGLHEDLQGVPE [VTI1B]", 3.97),
]

###

Assay: protein stability index of a GFP-peptide fusion (GPS, HEK-293T) (PSI 1-6); higher = more stable
Conditions: treatment: MLN4924 1 uM, 8 h; c terminus: a fixed tail appended
# maps each entry to its protein stability index

# Sequence record, protein stability index
data = [
    ("MPYNFCLPSLSCRTSCSSRPCVPP [KRT33B]", 2.18),
    ("NVPLSISRLTPGGKAAQAGVAVGD [PDLIM7]", 4.18),
    ("LLRRSVEGASSDNGCEVKNRKSIL [PHTF1]", 4.05),
    ("NSSEELSSALHLSKGMSIFLDILR [NECAB1]", 2.54),
    ("SVRRSESWARPRPDEERPLRRPRP [RASAL3]", 4.68),
    ("SRALALFDIQKIMQEKNPVHVIGV [ZNF8]", 1.89),
    ("IAVKTLGIGKNVICDRTATPLDAF [GFOD1]", 2.53),
    ("TALGGQCVDRQEVAEITKQLPPVV [TCAP]", 4.27),
    ("FPGVVARPIGEFRSNADYQYQLLR [CNOT7]", 2.97),
    ("LDKKVEKVTISNRLVSSPCCIVTS [HSP90AB1]", 2.98),
    ("GRIACANVLSDLYAMGITECDNML [SEPHS2]", 2.43),
    ("DFVMSLTFPFKILGDSGLGPWQLN [P2RY14]", 3.08),
    ("IMPDGTIVTTVTTVQSRPRIDGKL [C2CD2L]", 3.29),
    ("IFEPPVRNSGIIGGKYLGRTKVVK [EFHC1]", 3.62),
]

###

Catalogue of protein stability index readings, one per entry.
Experiment: protein stability index of a GFP-peptide fusion (GPS, HEK-293T) (PSI 1-6); higher = more stable
Details: treatment: MLN4924 1 uM, 8 h; c terminus: a fixed tail appended
Parameter measured: protein stability index

# Sequence record, Experimental value
measured = [
    ("SSQLAQMQCLISNVEAQLSEIRCD [KRT36]", 3.1),
    ("HKLDLNTREWTQLKPNNLSCDLPE [KLHDC10]", 4.41),
    ("TAPLPMPEGPEPAAPGKQPGRGHT [ELOA2]", 5.27),
    ("EPMWSGSTMRRMALRPTAFSGCLN [EMID1]", 2.79),
    ("TYMSADDLRINLWNFEITNQSFNI [PPP2R2B]", 2.53),
    ("RTSKSRGFAFITFENPADAKNAAK [RBMY1A1]", 3.46),
    ("AKDLPCDSKPESALGAPSKSPSSP [TBX5]", 5.54),
    ("QLIVTARTTRGLDPLFGMCEKFLQ [INTS4]", 2.06),
    ("LRMLEYEPAARISPLGALQHGFFR [DYRK1B]", 2.61),
    ("LGTDPTHVMGLYPDLLPTDYRKQL [VPS39]", 3.42),
    ("PPSSGNGPAPPPLPPALVPAGGLA [WAS]", 4.67),
    ("TPYKPPAGRAAAPELSYRVCVGSD [MYORG]", 4.13),
    ("GEKEVEALKKSADWVSDWSSRPEN [BNIP3L]", 4.88),
    ("TWTKHAEGGIFTSPNYPSKYPPDR [NETO1]", 3.85),
    ("PRIWSLAHTATASAVEGAPPARPR [IRX6]", 4.43),
    ("IFLNGNRERPLNVFCDMETDGGGW [TNXB]", 2.67),
    ("GHNDWVMDVAISNNKKWILSASKD [WDR88]", 3.22),
    ("SMRLLESKKGLSFFAFEHSEEYQQ [TCF25]", 3.3),
    ("GRQLEKVPEKRDSGMTEVERTYSA [SPATS1]", 5.24),
    ("FLAENSAFPKMALQAKQDGKKDVS [LCOR]", 4.36),
    ("LPIKIAAIIASLTFLYTLLREVIH [STEAP1]", 1.82),
    ("MSSPSSPFREQSFLCAAGDAGEES [TIAF1]", 5.32),
    ("STPLSPAYISLVEEEDQHMKLSLG [KLHL13]", 4.28),
    ("FYFENLWSRNSKPVHTTILNPHIH [CAMK2A]", 2.5),
    ("SLPETFGDFWRMIWEQRSATVVMM [PTPRD]", 2.43),
]
